Value source: PubChem BioAssay (NCI)

- System: HOP-62 NSCLC
- method.description: NCI-60 one-dose screen, 48 h (100 = growth as untreated, 0 = no growth, -100 = all killed)
- measurement.conditions: 10 µM unless noted
Compounds without any hit were thinned out: in the full panel of roughly 83,000, 20% have a hit.
Parameter: growth. Scope: all listed entries.
readout: growth (%)

[[record]]
compound = "Cc1cccc(-[n+]2noc(N)n2)c1"
recorded_number = 87.3

[[record]]
compound = "CCCCNc1ccc(-c2ccc(NCCCC)cc2)cc1"
recorded_number = 91.2

[[record]]
compound = "C/C(=N\\N=C(/C)c1cccc([N+](=O)[O-])c1)c1cccc([N+](=O)[O-])c1"
recorded_number = 74.3

[[record]]
compound = "CN=S(=O)(OCCCCCOS(=O)(=NC)c1ccc(C)cc1)c1ccc(C)cc1 (centres undefined)"
recorded_number = 101

